Listing: IC50 of selected compounds
# Test system: P-Akt (S473)
# MEASUREMENT PROTOCOL: Cell based AlphaLISA assay, inhibition of P-Akt (S473) (mTORC2 substrate phosphorylation) in MDA-MB-468 cells
# SETTINGS: Homo sapiens, MDA-MB-468, 4 h, AlphaLISA, two to four hours at 37° C., read-out: pIC50 for Inhibition of mTORC1 and mTORC2 Substrate Phosphorylation, p-AKT 1/2/3 -(S473) (converted)

Please review the entries below; each comes with its answer.
get_value(item= CO[C@H]1C[C@@H]2CC[C@@H](C)[C@@](O)(O2)C(=O)C(=O)N2CCCC[C@H]2C(=O)O[C@H]([C@H](C)C[C@@H]2CC[C@@H](OCCCCc3cn(CCOCCOCCOCCOCCOCCOCCOCCOCCC(=O)N4CCN(c5cc(-n6nc(-c7ccc8oc(N)nc8c7)c7c(N)ncnc76)ncn5)CC4)nn3)[C@H](OC)C2)CC(=O)[C@H](C)/C=C(\C)[C@@H](O)[C@@H](OC)C(=O)[C@H](C)C[C@H](C)/C=C/C=C/C=C/1C , readout=IC50) returns 0.00316 to 0.0316 µM

get_value(item= CO[C@H]1C[C@@H]2CC[C@@H](C)[C@@](O)(O2)C(=O)C(=O)N2CCCC[C@H]2C(=O)O[C@H]([C@H](C)C[C@@H]2CC[C@@H](O)[C@H](OC)C2)C[C@@H](O)[C@H](C)/C=C(\C)[C@@H](O)[C@@H](OC)C(=NOCc2cn(CCOCCOCCOCCOCCOCCOCCOCCOCCC(=O)NCCCCn3nc(-c4cnc5[nH]ccc5c4)c4c(N)ncnc43)nn2)[C@H](C)C[C@H](C)/C=C/C=C/C=C/1C , readout=IC50) returns 0.0316 to 1 µM

get_value(item= CO[C@H]1C[C@@H]2CC[C@@H](C)[C@@](O)(O2)C(=O)C(=O)N2CCCC[C@H]2C(=O)O[C@H]([C@H](C)C[C@@H]2CC[C@H](n3nncc3-c3cccc(-c4cnc(N5CCN(S(=O)(=O)CCc6cn(CCOCCOCCOCCC(=O)NCCCCn7nc(-c8ccc9oc(N)nc9c8)c8c(N)ncnc87)nn6)CC5)nc4)c3)[C@H](OC)C2)CC(=O)[C@H](C)/C=C(\C)[C@@H](O)[C@@H](OC)C(=O)[C@H](C)C[C@H](C)/C=C/C=C/C=C/1C , readout=IC50) returns 0.00316 to 0.0316 µM

Next:
get_value(item= CO[C@H]1C[C@@H]2CC[C@@H](C)[C@@](O)(O2)C(=O)C(=O)N2CCCC[C@H]2C(=O)O[C@H]([C@H](C)C[C@@H]2CC[C@H](n3nncc3-c3cccc(-c4cnc(N5CCN(Cc6cn(CCOCCOCCOCCC(=O)NCCCCn7nc(-c8ccc9oc(N)nc9c8)c8c(N)ncnc87)nn6)C(CO)C5)nc4)c3)[C@H](OC)C2)CC(=O)[C@H](C)/C=C(\C)[C@@H](O)[C@@H](OC)C(=O)[C@H](C)C[C@H](C)/C=C/C=C/C=C/1C (some centres unmarked) , readout=IC50) returns 0.0316 to 1 µM

get_value(item= COc1cccc2cc(-c3nc([C@H]4CC[C@H](C(=O)NCCOCCOCCOCCOCCOCCOCCn5cc(CCCCO[C@@H]6CC[C@@H](C[C@@H](C)[C@@H]7CC(=O)[C@H](C)/C=C(\C)[C@@H](O)[C@@H](OC)C(=O)[C@H](C)C[C@H](C)/C=C/C=C/C=C(\C)[C@@H](OC)C[C@@H]8CC[C@@H](C)[C@@](O)(O8)C(=O)C(=O)N8CCCC[C@H]8C(=O)O7)C[C@H]6OC)nn5)CC4)n4ncnc(N)c34)[nH]c12 , readout=IC50) returns 0.00316 to 0.0316 µM

====

# Tested on: P-Akt (S473)
# MEASUREMENT PROTOCOL: Cell based AlphaLISA assay, inhibition of P-Akt (S473) (mTORC2 substrate phosphorylation) in MDA-MB-468 cells
# SETTINGS: Homo sapiens, MDA-MB-468, 4 h, AlphaLISA, two to four hours at 37° C., read-out: pIC50 for Inhibition of mTORC1 and mTORC2 Substrate Phosphorylation, p-AKT 1/2/3 -(S473) (converted)
ATTRIBUTE MEASURED: IC50

Please review the entries below; each comes with its answer.
get_value(item= CO[C@H]1C[C@@H]2CC[C@@H](C)[C@@](O)(O2)C(=O)C(=O)N2CCCC[C@H]2C(=O)O[C@H]([C@H](C)C[C@@H]2CC[C@H](n3nncc3-c3cccc(-c4cnc(N5CCN(Cc6cn(CCOCCOCCOCCOCCC(=O)NCCCCn7nc(-c8ccc9oc(N)nc9c8)c8c(N)ncnc87)nn6)C(CO)C5)nc4)c3)[C@H](OC)C2)CC(=O)[C@H](C)/C=C(\C)[C@@H](O)[C@@H](OC)C(=O)[C@H](C)C[C@H](C)/C=C/C=C/C=C/1C (stereo partly drawn) [Example 33] , readout=IC50) returns 3.16 to 31.6 nM

get_value(item= CO/N=C1/C[C@@H]([C@H](C)C[C@@H]2CC[C@H](n3cc(COC(=O)NCCOCCOCCOCCC(=O)NCCOCCOCCOCCC(=O)NCCCCn4nc(-c5ccc6oc(N)nc6c5)c5c(N)ncnc54)nn3)[C@H](OC)C2)OC(=O)[C@@H]2CCCCN2C(=O)C(=O)[C@]2(O)O[C@@H](CC[C@H]2C)C[C@H](OC)/C(C)=C/C=C/C=C/[C@@H](C)C[C@@H](C)C(=O)[C@H](OC)[C@H](O)/C(C)=C/[C@H]1C [Example 153] , readout=IC50) returns > 1000 nM

Next:
get_value(item= CO[C@H]1C[C@@H]2CC[C@@H](C)[C@@](O)(O2)C(=O)C(=O)N2CCCC[C@H]2C(=O)O[C@H]([C@H](C)C[C@@H]2CC[C@@H](OCCCCc3cn(CCOCCOCCOCCOCCOCCOCCC(=O)NCc4ccc(Cn5nc(-c6ccc7oc(N)nc7c6)c6c(N)ncnc65)cc4)nn3)[C@H](OC)C2)CC(=O)[C@H](C)/C=C(\C)[C@@H](O)[C@@H](OC)C(=O)[C@H](C)C[C@H](C)/C=C/C=C/C=C/1C [Example 86] , readout=IC50) returns 3.16 to 31.6 nM

====

Listing: IC50 of selected molecules
# System: P-Akt (S473)
# MEASUREMENT PROTOCOL: Cell based AlphaLISA assay, inhibition of P-Akt (S473) (mTORC2 substrate phosphorylation) in MDA-MB-468 cells
# SETTINGS: Homo sapiens, MDA-MB-468, 4 h, AlphaLISA, two to four hours at 37° C., read-out: pIC50 for Inhibition of mTORC1 and mTORC2 Substrate Phosphorylation, p-AKT 1/2/3 -(S473) (converted)
# Protocol: Cell Based AlphaLISA Assays for Determining IC50 for Inhibition of P-Akt (S473), P-4E-BP1 (T37/46), and P-P70S6K (T389) in MDA-MB-468 Cells mTOR Kinase Cellular Assay To measure functional activity of mTORC1 and mTORC2 in cells the phosphorylation of 4EBP1 (Thr37/46) and P70S6K (Thr389), and AKT1/2/3 (Ser473) was monitored using AlphaLisa SureFire Ultra Kits (Perkin Elmer). […] Incubations were terminated by removal of the assay buffer and addition of lysis buffer provided with the assay kit. […]

get_value(item= CO[C@H]1C[C@@H]2CC[C@@H](C)[C@@](O)(O2)C(=O)C(=O)N2CCCC[C@H]2C(=O)O[C@H]([C@H](C)C[C@@H]2CC[C@@H](OCCOCc3cn(CCOCCOCCOCCOCCOCCOCCOCCOCCC(=O)NCCCCn4nc(-c5ccc6oc(N)nc6c5)c5c(N(C)C)ncnc54)nn3)[C@H](OC)C2)CC(=O)[C@H](C)/C=C(\C)[C@@H](O)[C@@H](OC)C(=O)[C@H](C)C[C@H](C)/C=C/C=C/C=C/1C , readout=IC50) returns > 1000 nM

Here's the next entry for you.
get_value(item= CO[C@H]1C[C@@H]2CC[C@@H](C)[C@@](O)(O2)C(=O)C(=O)N2CCCC[C@H]2C(=O)O[C@H]([C@H](C)C[C@@H]2CC[C@H](n3cc(-c4cccc(C(=O)NCCOCCOCCOCCC(=O)NCCOCCOCCOCCC(=O)NCCCCn5nc(-c6ccc7oc(N)nc7c6)c6c(N)ncnc65)c4)nn3)[C@H](OC)C2)CC(=O)[C@H](C)/C=C(\C)[C@@H](O)[C@@H](OC)C(=O)[C@H](C)C[C@H](C)/C=C/C=C/C=C/1C , readout=IC50) returns 31.6 to 1000 nM
